Exercise: for every item that follows, state its recorded log10 of IC50.
system.tested: peripheral (ω3) benzodiazepine (BZ) receptor (Rattus norvegicus, UniProt P16257)
experiment: BZω3 (peripheral-type) benzodiazepine receptor binding assay
The figures below represent log10 of IC50, where IC50 is stated in nM.

Consider the following illustrative entries.
- compound: "CCCN(CCC)C(=O)CNc1nc(-c2ccccc2)nc2c1CCCC2 [Example 102]"
  log10 of IC50: 0.52
- compound: "CCCN(CCC)C(=O)COc1nc(-c2ccccc2)nc(-c2ccccc2)c1C [Example 159]"
  log10 of IC50: 0.30
- compound: "CCCCN(C(=O)CNc1nc(-c2ccccc2)nc(C)c1C)c1ccccc1 [Example 57]"
  log10 of IC50: 0.73

I would be grateful if you could provide log10 of IC50 for each of the following entries.
1. Cc1nc(-c2ccc(F)cc2)nc(NCC(=O)N(C)c2ccccc2)c1C [Example 25]
2. Cc1nc(-c2ccccc2)nc(OCC(=O)N(CC2CC2)c2ccccc2)c1C [Example 190]

1: 0.29; 2: 0.60

I would be grateful if you could provide log10 of IC50 for each of the following entries.
1. Cc1nc(-c2ccc(C(F)(F)F)cc2)nc(NCC(=O)N(C)c2ccccc2)c1C [Example 27]
2. CCCN(CCC)C(=O)CN(C)c1nc(-c2ccccc2)nc(C)c1C [Example 70]
3. Cc1nc(-c2ccccc2)nc(OCC(=O)N(C)c2ccc(Cl)cc2)c1C [Example 149]
4. CCCN(CCC)C(=O)CNc1nc(-c2ccc(OC)cc2)nc(C)c1C [Example 5]
5. CCCN(CCC)C(=O)CNc1nc(-c2ccc(Cl)cc2)nc(C)c1C [Example 2]

1. -0.96
2. 0.05
3. 0.06
4. 0.11
5. -0.01

I would be grateful if you could provide log10 of IC50 for each of the following entries.
1. CN(C(=O)CNc1nc(-c2ccccc2)ncc1N)c1ccccc1 [Example 124]
2. Cc1nc(-c2ccccc2)nc(NCC(=O)N(C)c2ccc(Br)cc2)c1C [Example 37]
3. CCCN(CC)C(=O)CNc1nc(-c2ccccc2)nc(C)c1C [Example 17]
4. Cc1nc(-c2ccccc2)nc(OCC(=O)N2CC(C)CC(C)C2)c1C (stereo not drawn) [Example 170]
5. CN(C(=O)COc1nc(-c2ccc(Cl)cc2)nc2c1CCCC2)c1ccccc1 [Example 181]

0.73
0.22
0.29
0.00
0.21

* * *

Exercise: for every item that follows, state its recorded pIC50.
system.tested: peripheral (ω3) benzodiazepine (BZ) receptor (Rattus norvegicus)
One number for each entry, as −log10 of the molar value.

- compound: "Cc1nc(-c2ccccc2)nc(NCC(=O)N(CC2CC2)c2ccccc2)c1C"
  pIC50: 8.01
- compound: "CC1CN(C(=O)COc2nc(-c3ccc(Cl)cc3)nc3c2CCCC3)CC(C)O1 (centres unmarked)"
  pIC50: 8.70
- compound: "CCN(C(=O)CNc1nc(-c2ccc(F)cc2)nc(C)c1C)c1ccccc1"
  pIC50: 9.80
- compound: "CN(C(=O)COc1nc(-c2ccccc2)nc2c1CCCC2)c1ccc(F)cc1"
  pIC50: 9.09

Alright, here's another compound for you.
Respond only with pIC50 recorded for "CN(C(=O)COc1nc(-c2ccccc2)nc2c1CCCC2)c1ccccc1"
8.78

* * *

UniProt P16257 IC50 data
One number for each entry, in nM.

- compound: "CCN(CC)C(=O)COc1nc(-c2ccccc2)nc2c1CCCC2"
  measured.result: 4.3

I would be grateful if you could provide IC50 for each of the following entries.
1. CCCN(CCC)C(=O)COc1nc(-c2ccccc2)nc(C)c1C
2. Cc1nc(-c2ccccc2)nc(NCC(=O)N(C)c2ccc(F)cc2)c1C
3. CCCN(CCC)C(=O)COc1nc(-c2ccc(Cl)cc2)nc2c1CCCC2
4. CCCN(CCC)C(=O)COc1nc(-c2ccc([N+](=O)[O-])cc2)nc(C)c1C
5. CN(C(=O)C1CCCN1c1nc(-c2ccccc2)nc2c1CCCC2)c1ccc(Cl)cc1 (stereo not drawn) [Example 120, hydrate]
6. Cc1nc(-c2ccc(Cl)cc2)nc(NCC(=O)N(C)c2ccccc2)c1C
7. CCCCN(CCCC)C(=O)CNc1nc(-c2ccc(F)cc2)nc(C)c1C

[0.34, 1.51, 0.89, 0.08, 1.63, 1.76, 4]

I would be grateful if you could provide IC50 for each of the following entries.
1. CCc1c(C)nc(-c2ccccc2)nc1OCC(=O)N(C)c1ccc(Cl)cc1
2. CCCN(CCC)C(=O)CNc1nc(-c2ccccc2)nc(C)c1CC
3. Cc1nc(-c2ccccc2)nc(N(C)CC(=O)N(C)c2ccc(Cl)cc2)c1C

[4.96, 5.02, 1.33]

I would be grateful if you could provide IC50 for each of the following entries.
1. O=C(COc1nc(-c2ccccc2)nc2c1CCCC2)Nc1ccc(F)cc1
2. CN(C(=O)CNc1nc(-c2ccc(Cl)cc2)nc2c1CCCC2)c1ccc(Cl)cc1
3. CCCN(CCC)C(=O)CN(C)c1nc(-c2ccccc2)nc2c1CCCC2

1: 8.75; 2: 2.09; 3: 1.99

I would be grateful if you could provide IC50 for each of the following entries.
1. COc1ccc(N(C)C(=O)CNc2nc(-c3ccc(Cl)cc3)nc(C)c2C)cc1
2. CCCN(CCC)C(=O)CNc1nc(-c2ccc(F)cc2)nc2c1CCCC2
3. CCCN(CCC)C(=O)CNc1nc(-c2ccc(Cl)cc2)nc2c1CCCC2
4. CCN(C(=O)CNc1nc(-c2ccccc2)nc(C)c1C)c1ccccc1

1: 2.15; 2: 2.9; 3: 3.44; 4: 4.98

* * *

peripheral (ω3) benzodiazepine (BZ) receptor (Rattus norvegicus, UniProt P16257) IC50 data
Give bare numbers, in nM.

I would be grateful if you could provide IC50 for each of the following entries.
1. CCCN(CCC)C(=O)CNc1nc(-c2ccc(F)cc2)nc(C)c1C [Example 4]
2. CCCN(CCC)C(=O)C1Cc2ccccc2N1c1nc(-c2ccccc2)nc(C)c1C (stereo not drawn) [Example 81]
3. CCN(C(=O)COc1nc(-c2ccccc2)nc(C)c1C)c1ccccc1 [Example 151]
4. Cc1nc(-c2ccc(Cl)cc2)nc(NCC(=O)N(C)c2ccc(F)cc2)c1C [Example 36]
5. CCCN(CCC)C(=O)COc1nc(-c2ccc(Cl)cc2)nc(C)c1C [Example 137]
6. CCCN(CCC)C(=O)COc1cc(-c2ccccc2)nc(-c2ccccc2)n1 [Example 158]
7. C=CCN(C(=O)CNc1nc(-c2ccccc2)nc(C)c1C)c1ccccc1 [Example 58]

1. 4.36
2. 6.9
3. 0.58
4. 1.44
5. 0.93
6. 4.07
7. 1.62

* * *

experiment: Light and dark box test (anti-anxiety effect)
Format: in vivo, mouse (Std-ddY, male)
condition.label: Mus musculus, 0.5 h; oral, 30 min before test; mice; p<0.05 vs vehicle; read-out: Anti-anxiety effect MED (minimum effective dose)
Exercise: for every item that follows, state its recorded minimal effective dose.
One number for each entry, in mg/kg.

Consider the following illustrative entries.
- smiles.input: "Cc1nc(-c2ccccc2)nc(NCC(=O)N(C)CC(C)C)c1C"
  minimal effective dose [mg/kg]: 0.1
- smiles.input: "Cc1nc(-c2ccc(Cl)cc2)nc(NCC(=O)N(C)c2ccccc2)c1C"
  minimal effective dose [mg/kg]: 0.01
- smiles.input: "Cc1nc(-c2ccccc2)nc(NCC(=O)N(C)c2ccc(Br)cc2)c1C"
  minimal effective dose [mg/kg]: 0.1
- smiles.input: "CCCCN(CCCC)C(=O)CNc1nc(-c2ccc(F)cc2)nc(C)c1C"
  minimal effective dose [mg/kg]: 0.1

I would be grateful if you could provide minimal effective dose for each of the following entries.
1. COc1ccc(-c2nc(C)c(C)c(OCC(=O)N(C)c3ccc(Cl)cc3)n2)cc1
2. CCCN(CCC)C(=O)CNc1nc(-c2ccc(Cl)cc2)nc(C)c1C
3. CCCN(CCC)C(=O)COc1nc(-c2ccccc2)nc(C)c1C
4. CCCN(C(=O)CNc1nc(-c2ccccc2)nc(C)c1C)c1ccccc1
5. Cc1nc(-c2ccccc2)nc(NCC(=O)N(C)c2cccc(Cl)c2)c1C
6. CCN(CC)C(=O)CNc1nc(-c2ccc(Cl)cc2)nc(C)c1C

0.3
0.01
0.3
0.1
0.3
1

Respond only with minimal effective dose recorded for "Cc1nc(-c2ccccc2)nc(NCC(=O)N(C)c2ccccc2)c1C"
0.3

* * *

system.tested: peripheral (ω3) benzodiazepine (BZ) receptor (Rattus norvegicus)
Decision: IC50 beneath 1 nM gives MET; IC50 meeting or exceeding 1 nM gives NOT MET.

As a guide, the following entries are already answered.
- molecule: "CCCN(CCC)C(=O)COc1nc(-c2ccc(F)cc2)nc2c1CCCC2"
  group: "MET"
- molecule: "CCCN(C(=O)CNc1nc(-c2ccccc2)nc(C)c1C)c1ccccc1"
  group: "NOT MET"
- molecule: "CCCN(CCC)C(=O)C1CCCN1c1nc(-c2ccccc2)nc2c1CCCC2 (centres unmarked)"
  group: "NOT MET"
- molecule: "Cc1nc(-c2ccc(Cl)cc2)nc(OCC(=O)N(C)c2ccccc2)c1C"
  group: "MET"
- molecule: "CCN(C(=O)COc1nc(-c2ccc(C(F)(F)F)cc2)nc(C)c1C)c1ccccc1"
  group: "MET"

Does "CN(C(=O)COc1nc(-c2ccc(Cl)cc2)nc2c1CCCC2)c1ccc(Cl)cc1" have IC50 strictly under 1 nM?
NOT MET
